Each item that follows carries a reported electrical conductivity.
settings: 298.15 K; 100 kPa; Liquid; Alternating current cell with electrodes
# unit: S/m | format: bare number

compound	output unit	electrical conductivity
CC(=O)O.CCCCN [butylammonium acetate]	S/m	0.065
CCCC[NH3+].O=C[O-] [butylammonium formate]	S/m	0.332

Ask | Which electrical conductivity is listed for CCCC(=O)[O-].CCCC[NH3+] [n-butylammonium butanoate] ?
Reply | 0.038

Ask | Which electrical conductivity is listed for CCC(=O)[O-].CCCC[NH3+] [butylammonium propanoate] ?
Reply | 0.06

* * *

conditions: 308.15 K; 100 kPa; Liquid; Capillary tube (Ostwald / Ubbelohde) method
readout kind: viscosity (mPa·s)
# unit: mPa·s | format: bare number

Consider the following illustrative entries.
molecule	output unit	result number
CCC(=O)[O-].CCCC[NH3+] [butylammonium propanoate]	mPa·s	371.06
CCCC[NH3+].O=C[O-] [butylammonium formate]	mPa·s	72.01

Ask | Which viscosity is listed for CC(=O)O.CCCCN [butylammonium acetate] ?
Reply | 294.59

Ask | Which viscosity is listed for CCCC(=O)[O-].CCCC[NH3+] [n-butylammonium butanoate] ?
Reply | 448.37
